system: HeLa S3 (human cervical carcinoma); assay: MTT cytotoxic activity assay, HeLa S3; type: cell-based; conditions: 72 h, mean ± SEM of three replicates
pIC50 overview
For clarity, pIC50 is expressed as the negative log10 of concentration in mol/L.

// below: answered compounds
C[C@H]1Oc2c(c(O)c3c(=O)c4ccc(O)c(O)c4oc3c2CCC(C)(C)O)C1(C)C [Compound 4, gerontoxanthone C hydrate] :: 5.25
COc1c(O)ccc2c(=O)c3c(O)cc(O)cc3oc12 [Compound 13, 1,3,6-trihydroxy-5-methoxyxanthone] :: 4.82

Query string: Please indicate pIC50 recorded for COc1cccc2c1C(=O)c1c(O)c3c(c(O)c1C2=O)C[C@@](O)(C(=O)CO)C[C@@H]3O[C@H]1C[C@H](N)[C@H](O)[C@H](C)O1 [Doxorubicin, reference compound]
Result string: 6.82

All values here come from paper PMC8587515.
